- study_target: FPR3 (Homo sapiens, UniProt P25089)
- Sequence (P25089 whole entry): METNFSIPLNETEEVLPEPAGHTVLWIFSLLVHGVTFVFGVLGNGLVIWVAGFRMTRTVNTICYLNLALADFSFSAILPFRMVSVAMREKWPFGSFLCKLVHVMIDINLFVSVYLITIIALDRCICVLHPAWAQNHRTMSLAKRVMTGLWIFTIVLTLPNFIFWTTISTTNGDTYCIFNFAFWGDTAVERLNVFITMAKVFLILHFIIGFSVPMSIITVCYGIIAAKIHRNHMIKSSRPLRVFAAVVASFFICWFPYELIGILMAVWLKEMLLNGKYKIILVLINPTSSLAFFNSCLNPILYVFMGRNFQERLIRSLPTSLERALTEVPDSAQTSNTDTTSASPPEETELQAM
- assay_protocol: Ca2+ flux assay in FPR3-HL60 cells
- Type: cell-based
- measurement_context: % of the response induced by 5 nM WKYMVm
metric: FPR3-HL60 Efficacy (%)
Your answer should be a plain number; it is taken to be in %.

# molecule C=Cc1c(C)nn(CC(=O)Nc2ccc(Br)cc2)c(=O)c1Nc1cccc(OC)c1 [Compound 15] ; its FPR3-HL60 Efficacy = 75

So, COc1ccc(Nc2c(-c3ccn(C)n3)c(C)nn(CC(=O)Nc3ccc(Br)cc3)c2=O)cc1 [Compound 27b] ? Its FPR3-HL60 Efficacy was 110

get_value(item= CCc1c(C)nn(CC(=O)Nc2ccc(Br)cc2)c(=O)c1Nc1cccc(OC)c1 [Compound 13a] , readout=FPR3-HL60 Efficacy) returns 35

Entry COc1cccc(Nc2c(C(C)=O)c(C)nn(CC(=O)Nc3ccc(Br)cc3)c2=O)c1 [Compound 8a] , FPR3-HL60 Efficacy reported as 150
